The molecules listed here are annotated with their log10 EC50.
Tested on: virus strain F (R13025)
Assay: microbe, parasite or virus in culture
Format: cell-based, HIV
Conditions: Human immunodeficiency virus 1, MT4, read-out: HIV-AVE-MT4-MTT-R13025-2-002 pEC50, virus strain F (R13025), MT4 cells, MTT (converted)
Experimental: HIV- or mock-infected MT4 cells were incubated for five days in the presence of various concentrations of the inhibitor. […] Cell viability is measured by measuring the concentration of MTT, a yellow, water soluble tetrazolium dye that is converted to a purple, water insoluble formazan in the mitochondria of living cells only. Upon solubilization of the resulting formazan crystals with isopropanol, the absorbance of the solution is monitored at 540 nm. […]
Values are log10 of EC50 in nM.

The examples below pair each entry with its known result.
molecule | log10 EC50
CC(C)CN(C[C@@H](O)[C@H](Cc1ccccc1)NC(=O)OC(C)(C)C)S(=O)(=O)c1ccc2nc(NCCN3CCCC3)sc2c1 [Compound 126] | 3.50
CC(C)CN(C[C@@H](O)[C@H](Cc1ccccc1)NC(=O)OCc1cncs1)S(=O)(=O)c1ccc2nc(N(C)C(=O)c3cc(ON)cc(ON)c3)sc2c1 [Compound 152] | 2.75
CC(C)CN(C[C@@H](O)[C@H](Cc1ccccc1)NC(=O)O[C@H]1CO[C@H]2OCC[C@H]21)S(=O)(=O)c1ccc2nc(N(C)CCCN(C)C)sc2c1 [Compound 103] | 2.24

Annotate the molecule Cc1cccc(C)c1OCC(=O)N[C@@H](Cc1ccccc1)[C@H](O)CN(CC(C)C)S(=O)(=O)c1ccc2nc(N(C)CCN3CCCC3)sc2c1 [Compound 115] with its measured log10 EC50.
3.79

Annotate the molecule CC(C)CN(C[C@@H](O)[C@H](Cc1ccccc1)NC(=O)O[C@H]1CO[C@H]2OCC[C@H]21)S(=O)(=O)c1ccc2nc(NC(=O)c3cncs3)sc2c1 [Compound 177] with its measured log10 EC50.
0.88

Annotate the molecule CC(C)CN(C[C@@H](O)[C@H](Cc1ccccc1)NC(=O)O[C@H]1CCOC1)S(=O)(=O)c1ccc2nc(NC(=O)CN3CCCC3)sc2c1 [Compound 100] with its measured log10 EC50.
1.64

Annotate the molecule CCOC(=O)Nc1nc2ccc(S(=O)(=O)N(CC(C)C)C[C@@H](O)[C@H](Cc3ccccc3)NC(=O)OCc3cncs3)cc2s1 [Compound 170] with its measured log10 EC50.
1.24

Annotate the molecule Cc1cccc(C)c1OCC(=O)N[C@@H](Cc1ccccc1)[C@H](O)CN(CC(C)C)S(=O)(=O)c1ccc2nc(NCc3ccncc3)sc2c1 [Compound 131] with its measured log10 EC50.
2.92

* * *

experiment: Pharmacokinetics after oral dosing in dogs (LC-MS); type: in vivo; details: blood, 10 mg/kg, or, dog, 10 mpk, (PEG)
endpoint_name: Cmax (ng/mL)
Just the number please, in ng/mL, no unit attached.

Annotate the compound CC(C)CN(C[C@@H](O)[C@H](Cc1ccccc1)NC(=O)O[C@H]1CO[C@H]2OCC[C@H]21)S(=O)(=O)c1ccc2nc(N(C)CCCN(C)C)sc2c1 with its measured Cmax.
379

* * *

The molecules listed here are annotated with their fold resistance (FR), strain S.
tested on: virus strain S (R13080); assay: microbe, parasite or virus in culture; assay type: cell-based, HIV; conditions: FR=EC50(mutant strain)/EC50(HIV-1 strain LAI); strain S
Form field (numeric): enter value without unit.

molecule | fold resistance (FR), strain S
CC(C)CN(C[C@@H](O)[C@H](Cc1ccccc1)NC(=O)O[C@H]1CO[C@H]2OCC[C@H]21)S(=O)(=O)c1ccc2nc(N3CCN(C)C(=O)C3)sc2c1 | 24.1
CC(=O)N(C)c1nc2ccc(S(=O)(=O)N(CC(C)C)C[C@@H](O)[C@H](Cc3ccccc3)NC(=O)O[C@H]3CCOC3)cc2s1 | 313.0
CC(C)CN(C[C@@H](O)[C@H](Cc1ccccc1)NC(=O)OCc1cncs1)S(=O)(=O)c1ccc2nc(NCCN3CCCC3)sc2c1 | 17.8
CC(C)CN(C[C@@H](O)[C@H](Cc1ccccc1)NC(=O)O[C@H]1CO[C@H]2OCC[C@H]21)S(=O)(=O)c1ccc2nc(NCCN3CCCC3)sc2c1 | 0.5
CC(C)CN(C[C@@H](O)[C@H](Cc1ccccc1)NC(=O)O[C@H]1CCOC1)S(=O)(=O)c1ccc2nc(NC(=O)CN3CCNCC3)sc2c1 | 4.3

Turning now to a further molecule:
Annotate the molecule CC(C)CN(CC(O)C(Cc1ccccc1)NC(=O)OC1COCC1N(C)C)S(=O)(=O)c1ccc2nc(NCCN(C)C)sc2c1 (stereo not drawn) with its measured fold resistance (FR), strain S.
89.3
